melting point values, listed per item

Consider the worked cases shown below.
molecule	obs_value
CCCCNC(=O)C(C)CC(O)C(Cc1cc(F)cc(F)c1)NC(=O)C1=Cc2ccccc2Oc2ccccc21 (stereo not shown)	174 to 176 °C
CCCCNC(=O)C(C)CC(O)C(Cc1ccccc1)NC(=O)c1cc2ccccc2c(=O)c2ccccc12 (stereo not shown)	229 to 230 °C
CCCCNC(=O)C(C)CC(O)C(Cc1cccc(F)c1)NC(=O)C1=Cc2ccccc2Oc2ccccc21 (stereo not shown)	204 to 207 °C

Endpoint output: melting point of CCCCNC(=O)C(C)CC(O)C(Cc1ccccc1)NC(=O)C1=Cc2ccccc2Oc2cc(Cl)ccc21 (stereo not shown) . Value?
153 to 155 °C
